System: Trypanosoma cruzi
experimentalDetails: Antitrypanosomal activity against epimastigotes of Trypanosoma cruzi Y assessed as parasite growth inhibition after 5 days by spectrophotometric analysis
Assay type: functional, organism-based
measuredMetric: log(1/C)

>>> measurednumber("CC(=O)N1N=C(c2ccc(C(F)(F)F)cc2)OC1c1ccc([N+](=O)[O-])o1 (centres undefined)")
4.95
>>> measurednumber("CCCCc1ccc(C2=NN(C(C)=O)C(c3ccc([N+](=O)[O-])o3)O2)cc1 (centres undefined)")
5.08
>>> measurednumber("CCCCc1ccc(C(=O)N/N=C/c2ccc([N+](=O)[O-])o2)cc1")
5.98
>>> measurednumber("Cc1ccc(C(=O)N/N=C/c2ccc([N+](=O)[O-])o2)cc1")
5.43
>>> measurednumber("CC(=O)N1N=C(c2ccc([N+](=O)[O-])cc2)OC1c1ccc([N+](=O)[O-])o1 (centres undefined)")
4.85
>>> measurednumber("O=C(N/N=C/c1ccc([N+](=O)[O-])o1)c1ccccc1")
5.35
>>> measurednumber("COc1ccc(C(=O)N/N=C/c2ccc([N+](=O)[O-])o2)cc1")
5.4
>>> measurednumber("N#Cc1ccc(C(=O)N/N=C/c2ccc([N+](=O)[O-])o2)cc1")
4.9
>>> measurednumber("O=C(N/N=C/c1ccc([N+](=O)[O-])o1)c1ccc(C(F)(F)F)cc1")
5.35

----------
Quick list: pIC50 per entry.
System: Trypanosoma cruzi
experimentalDetails: Antitrypanosomal activity against epimastigotes of Trypanosoma cruzi Y assessed as parasite growth inhibition after 5 days by spectrophotometric analysis
Format: functional, organism-based
conditionDetails: Trypanosoma cruzi, Y, 120 h
pIC50: −log10 of the molar value.
measuredMetric: pIC50

>>> measurednumber("CC(=O)N1N=C(c2ccc(Br)cc2)OC1c1ccc([N+](=O)[O-])o1 (stereo not drawn)")
5.02
>>> measurednumber("COc1ccc(C2=NN(C(C)=O)C(c3ccc([N+](=O)[O-])o3)O2)cc1 (stereo not drawn)")
5.03
>>> measurednumber("CC(=O)N1N=C(c2ccc([N+](=O)[O-])cc2)OC1c1ccc([N+](=O)[O-])o1 (stereo not drawn)")
4.86
